Where do these numbers come from? They come from ChEMBL document CHEMBL4689842.

Give Total Cell Count for every item shown.
system: HEK-293T; experiment: Multiplex assay against HEK293T; format: toxicity, cell-based; details: human, 48 h, 1 µM, compound concentration 1 uM, replicate 2
Numbers only.

Sample answers from the record:
1) O=c1cc(N2CCOCC2)oc2c(-c3cccc4c3sc3ccccc34)cccc12 | 477
2) Cc1c[nH]c2nccc(Oc3c(F)cc(Nc4cc(Cl)nc(N)n4)cc3F)c12 [BAY-549] | 336
3) CC(C)OC(=O)N1CCC(Oc2ncnc3c2cnn3-c2ccc(S(C)(=O)=O)cc2F)CC1 | 463
4) COC(=O)C1=C(C)NC(C)=C(C(=O)OCCCN2CCC(c3ccccc3)(c3ccccc3)CC2)[C@H]1c1cccc([N+](=O)[O-])c1 [NIGULDIPINE] | 203
5) COc1ccc(-c2ccc3ncc4c(c3c2)n(-c2ccc(N3CCNCC3)c(C(F)(F)F)c2)c(=O)n4C)cn1.O=C(O)/C=C\C(=O)O [BGT-226] | 166

Next:
Consider the compound Cc1ccc2c(c1)c1c(n2CCc2ccc(C)nc2)CCN(C)C1 [LATREPIRDINE] and give its measured Total Cell Count. 413
